Please find below IC50 data on Coagulation factor X (Homo sapiens, UniProt P00742) compiled from the literature.
Numbers only, in µM.

INSERT INTO results (test_smiles, unit_annotation, value_observed) VALUES
  ('CN1CCc2nc(C(=O)NCc3ccccc3NC(=O)c3ccc(Cl)s3)sc2C1', 'µM', 5.68),
  ('CNc1cccc(-c2ccc(C(=O)Nc3ccc(Cl)cc3C(=O)Nc3ccc(Cl)cn3)cc2)c1', 'µM', 0.0023),
  ('COc1ccc(/C(O)=C(C#N)/C(=N\[C@H]2CCCCN(CC(=O)N3CCCC3)C2=O)Nc2ccc3oc(C)cc3c2)cc1', 'µM', 0.013);

Now consider the entry below.
Param item = CC(=O)O[C@@H]1CC[C@@]2(C)[C@@H]3CC[C@](C)(CO)C=C3CC[C@@H]2C1(C)C ; retrieve measured IC50. 8.45

* * *

Please find below log10 of IC50 data on Coagulation factor X (Homo sapiens, UniProt P00742) compiled from the literature.
// do not treat as linear: log10 of IC50, unit nM

I'm hoping you can list log10 of IC50 for every compound here, please.
1. NC(N)=NCc1ccccc1-c1ccc(C(=O)Nc2ccc(Cl)cc2C(=O)Nc2ccc(Cl)cn2)cc1
2. CCOC(=O)CN(CCCS(=O)(=O)c1ccc2cc(Cl)ccc2c1)C(=O)C1CCN(c2ccncc2)CC1
3. CCN(CC)Cc1ccc(C(=O)Nc2ccc(Cl)cc2C(=O)Nc2ccc(Cl)cn2)cc1
4. CS(=O)(=O)c1ccccc1-c1ccc2c(c1)SC[C@H]1[C@H](CNC(=O)c3ccc(Cl)s3)OC(=O)N21
5. N=C(N)c1cccc(OC(C(=O)Nc2ccc(-n3ccc(C(F)(F)F)n3)cc2)c2ccccc2)c1 (configuration not stated)
6. Cc1cc(C(=O)Nc2ccc(C(=N)N3CCCC3)cc2F)n(-c2ccc3cc(Cl)ccc3c2)n1
7. CC(CCc1ccccc1)Nc1c(F)c(Oc2cccc(C(=N)N)c2)nc(Oc2ccc(C(C)(C)C)cc2C(=O)O)c1F (configuration not stated)
8. COc1ccc(/C(C)=C(/F)C(=O)Nc2ccc(-c3ccccc3S(N)(=O)=O)cc2)c(C#N)c1

[0.08, 1.81, 1.54, 1.32, 2.23, 0.85, 3.52, 3.76]

* * *

Please find below IC50 data on Coagulation factor X (Homo sapiens, UniProt P00742) compiled from the literature.
One number for each entry, in nM.

Past entries and their recorded results:
INSERT INTO results (test_smiles, tested_on, value_observed) VALUES
  ('COc1ccc(N/C(=N\C(=O)c2ccc(OC)c(OC)c2)N[C@H]2CCCCN(CC(=O)N3CCCC3)C2=O)cc1', 'Coagulation factor X (Homo sapiens, UniProt P00742)', 494),
  ('COc1ccc(CC(=O)N2CN(c3ccc(N4CCOCC4=O)cc3)C(=O)c3cc(OC)ccc32)cc1', 'Coagulation factor X (Homo sapiens, UniProt P00742)', 717);

Now consider the entry below.
Param item = CC(C)CNC(=O)c1ccc(-c2ccc(-c3ccccc3)cc2C(=O)Nc2ccc(C(=N)N)cc2)c(C(=O)O)c1 ; retrieve measured IC50. 350

* * *

Please find below IC50 data on Coagulation factor X (Homo sapiens) compiled from the literature.

Past entries and their recorded results:
INSERT INTO results (molecule, value_observed) VALUES
  ('O=C(NC[C@@H]1OC(=O)N2c3ccc(N4CCOCC4=O)cc3OC[C@@H]12)Nc1ccc(Cl)s1', '88.5 nM'),
  ('CS(=O)(=O)N(Cc1ccc2ccc(C(=N)N)cc2c1)C1CCN(C(=O)c2cccc(C#N)c2)CC1', '> 100000 nM'),
  ('CO[C@@H]1CCN(c2ccc3c(c2)OC[C@H]2[C@H](CNC(=O)c4ccc(Cl)s4)OC(=O)N32)C(=O)C1', '590 nM'),
  ('Cc1cc(C(=O)Nc2ccc(-c3ccccc3S(N)(=O)=O)cc2)n(-c2cc3ccccc3cc2S(N)(=O)=O)n1', '24 nM');

I'm hoping you can list IC50 for every molecule here, please.
1. CC1(C)OCC([C@]2(C)C=C3CC[C@@H]4C(C)(C)[C@H](O)CC[C@@]4(C)[C@@H]3CC2)O1 (stereo partly drawn)
2. N=C(N)NCCC[C@H](NC(=O)CN1CCN(C(=O)c2ccccc2)CC1=O)C(=O)c1nccs1
3. COc1cccc(C(=O)O)c1OCCc1cc(-c2ccc3c(c2)[C@H](N)CO3)cc(C(C)C)c1

1. 1020 nM
2. 320 nM
3. 6210 nM

Param item = Nc1nc(-c2ccccn2)nn1C(=O)c1ccc(C(F)(F)F)cc1 ; retrieve measured IC50. > 5000 nM
